Measured relative viability by item
# Tested on: EPLC-272H
# experiment.description: relative viability (nuclei count vs DMSO), 5 days (fraction); higher = more cells survive
# measurement.context: first compound 0.04 µM
measurement.kind: relative viability

• O=C(O)c1ccc(-c2c[nH]c3ncc(-c4ccccc4)cc23)cc1C1CCCC1 + COc1cccc2cc(-c3nc([C@H]4CC[C@H](C(=O)O)CC4)n4ncnc(N)c34)[nH]c12 [OSI-027] (partner 0.5 µM) = 0.266
• O=C(O)c1ccc(-c2c[nH]c3ncc(-c4ccccc4)cc23)cc1C1CCCC1 + CC(=O)Nc1cccc(-n2c(=O)n(C3CC3)c(=O)c3c(Nc4ccc(I)cc4F)n(C)c(=O)c(C)c32)c1 [Trametinib] (partner 0.02 µM) = 0.307
• O=C(O)c1ccc(-c2c[nH]c3ncc(-c4ccccc4)cc23)cc1C1CCCC1 + O=C(c1cc(Cc2n[nH]c(=O)c3ccccc23)ccc1F)N1CCN(C(=O)C2CC2)CC1 [Olaparib] (partner 8 µM) = 0.924
• O=C(O)c1ccc(-c2c[nH]c3ncc(-c4ccccc4)cc23)cc1C1CCCC1 + Cc1nc(NC(=O)N2CCC[C@H]2C(N)=O)sc1-c1ccnc(C(C)(C)C(F)(F)F)c1 [Alpelisib] (partner 2 µM) = 0.79
• O=C(O)c1ccc(-c2c[nH]c3ncc(-c4ccccc4)cc23)cc1C1CCCC1 + Nc1ncn([C@H]2C[C@H](O)[C@@H](CO)O2)c(=O)n1 [Decitabine] (partner 2 µM) = 0.351

---

Measured relative viability by item
# Test system: NCI-H1793
# experiment.description: relative viability (nuclei count vs DMSO), 5 days (fraction); higher = more cells survive
# measurement.context: first compound 0.01 µM
measurement.kind: relative viability

* NC(=O)Nc1cc(-c2cccc(F)c2)sc1C(=O)N[C@H]1CCCNC1 [AZD7762] + N=C(N)NC(=N)NCCc1ccccc1 [Phenformin] (partner 250 µM) | 0.428
* NC(=O)Nc1cc(-c2cccc(F)c2)sc1C(=O)N[C@H]1CCCNC1 [AZD7762] + Cc1nc(NC(=O)N2CCC[C@H]2C(N)=O)sc1-c1ccnc(C(C)(C)C(F)(F)F)c1 [Alpelisib] (partner 2 µM) | 0.835
* NC(=O)Nc1cc(-c2cccc(F)c2)sc1C(=O)N[C@H]1CCCNC1 [AZD7762] + Cc1nc(Nc2ncc(C(=O)Nc3c(C)cccc3Cl)s2)cc(N2CCN(CCO)CC2)n1 [Dasatinib] (partner 0.075 µM) | 0.408
* NC(=O)Nc1cc(-c2cccc(F)c2)sc1C(=O)N[C@H]1CCCNC1 [AZD7762] + O=C(CCCCCCC(=O)Nc1ccccc1)NO [Vorinostat] (partner 1 µM) | 0.692

---

# Test system: HCC-78
# experiment.description: relative viability (nuclei count vs DMSO), 5 days (fraction); higher = more cells survive
# measurement.context: first compound 0.08 µM
measurement.kind: relative viability

- Oc1nc(-c2ccc(C(F)(F)F)cc2)nc2c1CSCC2 [XAV939] + CC(C)C[C@H](NC(=O)[C@H](Cc1ccccc1)NC(=O)c1cnccn1)B(O)O [Bortezomib] (partner 0.002 µM): 0.517
- Oc1nc(-c2ccc(C(F)(F)F)cc2)nc2c1CSCC2 [XAV939] + CC(=O)Nc1cccc(-n2c(=O)n(C3CC3)c(=O)c3c(Nc4ccc(I)cc4F)n(C)c(=O)c(C)c32)c1 [Trametinib] (partner 0.02 µM): 0.827
- C=C1C(=O)O[C@@H](CCCCCCCC)[C@@H]1C(=O)O [C-75] + Nc1ncn([C@H]2C[C@H](O)[C@@H](CO)O2)c(=O)n1 [Decitabine] (partner 2 µM): 0.693
- Oc1nc(-c2ccc(C(F)(F)F)cc2)nc2c1CSCC2 [XAV939] + N=C(N)NC(=N)NCCc1ccccc1 [Phenformin] (partner 250 µM): 0.711
- C=C1C(=O)O[C@@H](CCCCCCCC)[C@@H]1C(=O)O [C-75] + Cc1nc(Nc2ncc(C(=O)Nc3c(C)cccc3Cl)s2)cc(N2CCN(CCO)CC2)n1 [Dasatinib] (partner 0.075 µM): 0.418
- Oc1nc(-c2ccc(C(F)(F)F)cc2)nc2c1CSCC2 [XAV939] + Nc1ncn([C@H]2C[C@H](O)[C@@H](CO)O2)c(=O)n1 [Decitabine] (partner 2 µM): 0.679
- C=C1C(=O)O[C@@H](CCCCCCCC)[C@@H]1C(=O)O [C-75] + N=C(N)NC(=N)NCCc1ccccc1 [Phenformin] (partner 250 µM): 0.844

---

Measured relative viability by item
# Tested on: NCI-H2170
# experiment.description: relative viability (nuclei count vs DMSO), 5 days (fraction); higher = more cells survive
# measurement.context: first compound 0.8 µM
measurement.kind: relative viability

* Oc1nc(-c2ccc(C(F)(F)F)cc2)nc2c1CSCC2 [XAV939] + CC(=O)Nc1cccc(-n2c(=O)n(C3CC3)c(=O)c3c(Nc4ccc(I)cc4F)n(C)c(=O)c(C)c32)c1 [Trametinib] (partner 0.02 µM) | 0.822
* C=C1C(=O)O[C@@H](CCCCCCCC)[C@@H]1C(=O)O [C-75] + CC(=O)Nc1cccc(-n2c(=O)n(C3CC3)c(=O)c3c(Nc4ccc(I)cc4F)n(C)c(=O)c(C)c32)c1 [Trametinib] (partner 0.02 µM) | 0.941
* C=C1C(=O)O[C@@H](CCCCCCCC)[C@@H]1C(=O)O [C-75] + COc1cc2c(Oc3ccc(NC(=O)C4(C(=O)Nc5ccc(F)cc5)CC4)cc3F)ccnc2cc1OCCCN1CCOCC1 [Foretinib] (partner 0.25 µM) | 0.987
* Oc1nc(-c2ccc(C(F)(F)F)cc2)nc2c1CSCC2 [XAV939] + COc1cccc2cc(-c3nc([C@H]4CC[C@H](C(=O)O)CC4)n4ncnc(N)c34)[nH]c12 [OSI-027] (partner 0.5 µM) | 0.643

---

# Test system: SK-MES-1
# experiment.description: relative viability (nuclei count vs DMSO), 5 days (fraction); higher = more cells survive
# measurement.context: first compound 0.08 µM
Measured relative viability by item
measurement.kind: relative viability

- C=C1C(=O)O[C@@H](CCCCCCCC)[C@@H]1C(=O)O [C-75] + CC(=O)Nc1cccc(-n2c(=O)n(C3CC3)c(=O)c3c(Nc4ccc(I)cc4F)n(C)c(=O)c(C)c32)c1 [Trametinib] (partner 0.02 µM): 0.538
- Oc1nc(-c2ccc(C(F)(F)F)cc2)nc2c1CSCC2 [XAV939] + CC1(C)CCC(c2ccc(Cl)cc2)=C(CN2CCN(c3ccc(C(=O)NS(=O)(=O)c4ccc(N[C@H](CCN5CCOCC5)CSc5ccccc5)c(S(=O)(=O)C(F)(F)F)c4)cc3)CC2)C1 [Navitoclax] (partner 0.5 µM): 1.21
- C=C1C(=O)O[C@@H](CCCCCCCC)[C@@H]1C(=O)O [C-75] + N=C(N)NC(=N)NCCc1ccccc1 [Phenformin] (partner 250 µM): 0.652
- Oc1nc(-c2ccc(C(F)(F)F)cc2)nc2c1CSCC2 [XAV939] + O=C(c1cc(Cc2n[nH]c(=O)c3ccccc23)ccc1F)N1CCN(C(=O)C2CC2)CC1 [Olaparib] (partner 8 µM): 0.664

---

# Tested on: BEN
# experiment.description: relative viability (nuclei count vs DMSO), 5 days (fraction); higher = more cells survive
# measurement.context: first compound 0.8 µM
Measured relative viability by item
measurement.kind: relative viability

• Oc1nc(-c2ccc(C(F)(F)F)cc2)nc2c1CSCC2 [XAV939] + CC1(C)CCC(c2ccc(Cl)cc2)=C(CN2CCN(c3ccc(C(=O)NS(=O)(=O)c4ccc(N[C@H](CCN5CCOCC5)CSc5ccccc5)c(S(=O)(=O)C(F)(F)F)c4)cc3)CC2)C1 [Navitoclax] (partner 0.5 µM) = 0.0568
• Oc1nc(-c2ccc(C(F)(F)F)cc2)nc2c1CSCC2 [XAV939] + O=C(c1cc(Cc2n[nH]c(=O)c3ccccc23)ccc1F)N1CCN(C(=O)C2CC2)CC1 [Olaparib] (partner 8 µM) = 1.02
• Oc1nc(-c2ccc(C(F)(F)F)cc2)nc2c1CSCC2 [XAV939] + CC(=O)c1c(C)c2cnc(Nc3ccc(N4CCNCC4)cn3)nc2n(C2CCCC2)c1=O [Palbociclib] (partner 0.5 µM) = 0.485
• C=C1C(=O)O[C@@H](CCCCCCCC)[C@@H]1C(=O)O [C-75] + N=C(N)NC(=N)NCCc1ccccc1 [Phenformin] (partner 250 µM) = 0.297
• Oc1nc(-c2ccc(C(F)(F)F)cc2)nc2c1CSCC2 [XAV939] + C[C@@H](Oc1cc(-c2cnn(C3CCNCC3)c2)cnc1N)c1c(Cl)ccc(F)c1Cl [Crizotinib] (partner 1 µM) = 0.978
• C=C1C(=O)O[C@@H](CCCCCCCC)[C@@H]1C(=O)O [C-75] + CS(=O)(=O)CCNCc1ccc(-c2ccc3ncnc(Nc4ccc(OCc5cccc(F)c5)c(Cl)c4)c3c2)o1 [Lapatinib] (partner 2 µM) = 0.682
